Target: human ANO1 channel (isoform acd) (Homo sapiens, UniProt Q5XXA6)
Construct: host or cells: HEK293T
Sequence (Q5XXA6 whole entry, canonical isoform): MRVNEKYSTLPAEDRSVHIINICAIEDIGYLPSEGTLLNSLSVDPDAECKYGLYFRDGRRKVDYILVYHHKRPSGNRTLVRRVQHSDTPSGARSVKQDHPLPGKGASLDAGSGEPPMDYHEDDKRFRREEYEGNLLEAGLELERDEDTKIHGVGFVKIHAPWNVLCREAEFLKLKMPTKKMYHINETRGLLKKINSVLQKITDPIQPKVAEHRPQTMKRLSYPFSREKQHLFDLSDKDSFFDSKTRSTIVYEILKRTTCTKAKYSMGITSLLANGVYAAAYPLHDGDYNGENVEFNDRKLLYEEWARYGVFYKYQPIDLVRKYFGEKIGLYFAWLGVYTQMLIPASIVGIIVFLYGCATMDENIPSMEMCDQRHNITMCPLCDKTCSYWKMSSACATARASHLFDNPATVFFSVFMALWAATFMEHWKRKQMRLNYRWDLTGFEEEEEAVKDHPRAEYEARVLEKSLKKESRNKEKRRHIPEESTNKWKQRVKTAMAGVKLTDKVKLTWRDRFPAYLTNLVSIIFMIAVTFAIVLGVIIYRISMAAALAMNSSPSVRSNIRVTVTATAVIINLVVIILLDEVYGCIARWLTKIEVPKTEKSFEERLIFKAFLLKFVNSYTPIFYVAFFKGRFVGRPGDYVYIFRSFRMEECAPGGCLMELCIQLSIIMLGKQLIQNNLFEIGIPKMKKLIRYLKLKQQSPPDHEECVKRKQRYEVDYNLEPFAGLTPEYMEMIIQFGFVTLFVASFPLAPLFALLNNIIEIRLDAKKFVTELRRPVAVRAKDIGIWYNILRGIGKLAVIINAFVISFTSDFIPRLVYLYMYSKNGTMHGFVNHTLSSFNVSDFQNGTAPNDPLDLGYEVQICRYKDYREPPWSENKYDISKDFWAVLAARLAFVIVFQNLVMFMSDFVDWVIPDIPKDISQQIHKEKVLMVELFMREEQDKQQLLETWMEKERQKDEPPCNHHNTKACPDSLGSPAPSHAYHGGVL
Assay: QPatch-48 automated whole-cell electrophysiology, cumulative five-concentration single-addition protocol
Assay type: cell-based
Settings: independent experiment 5; read-out: IC50s for independent experiments 5
quantity.name: IC50
Value and unit, in that order.

These solved cases illustrate the format of a correct answer.
>  <compound>
O=C(Nc1ccc([N+](=O)[O-])cc1Cl)c1cc(Cl)ccc1O [Niclosamide]

>  <observed.measurement>
1.81 µM

$$$$
>  <compound>
O=C(O)c1cccnc1Nc1cccc(C(F)(F)F)c1 [Niflumic acid]

>  <observed.measurement>
7.71 µM

$$$$

Please find the next compound below.
State its IC50 on human ANO1 channel (isoform acd) (Homo sapiens, UniProt Q5XXA6): CCc1oc2ccccc2c1C(=O)c1cc(Br)c(O)c(Br)c1 [Benzbromarone] 3.18 µM
